Assay: Acute toxicity in mice
Conditions: mouse, in vivo, po
measured-quantity: LD50

Challenge: Would you kindly share the measured LD50 for CNC1C(O)C(OC2C(N)CC(N)C(OC3OC(C(C)N)C(O)C(O)C3O)C2O)OCC1(C)O (stereo not shown) ?
Response given: > 250 mg/kg

* * *

Assay: Acute toxicity in mice
Details: mouse, in vivo, ip
measured-quantity: LD50 (mg/kg)
Hi! Could you send only the number? It should be in mg/kg, unit omitted.

Challenge: Would you kindly share the measured LD50 for CNC1C(O)C(OC2C(N)CC(N)C(OC3OC(C(C)N)C(O)C(O)C3O)C2O)OCC1(C)O (centres unmarked) [Gentamicin B1] ?
Response given: 1600

* * *

Assay: in vivo
Settings: mouse, ip
measured-quantity: LD50 (mg/kg)
Hi! Could you send only the number? It should be in mg/kg, unit omitted.

Challenge: Would you kindly share the measured LD50 for CNC1C(O)C(OC2C(N)CC(N)C(OC3OC(CN)C(O)C(O)C3O)C2O)OCC1(C)O (stereo not shown) ?
Response given: 1750

* * *

Experiment: in vivo
Settings: mouse, sc
measured-quantity: LD50

Challenge: Would you kindly share the measured LD50 for CNC1C(O)C(OC2C(N)CC(N)C(OC3OC(CN)C(O)C(O)C3O)C2O)OCC1(C)O (stereo not shown) [Gentamicin B] ?
Response given: > 1500 mg/kg

* * *

Test: in vivo
Conditions: mouse, po
measured-quantity: LD50

Challenge: Would you kindly share the measured LD50 for CNC1C(O)C(OC2C(N)CC(N)C(OC3OC(CN)C(O)C(O)C3O)C2O)OCC1(C)O (stereo not shown) ?
Response given: > 250 mg/kg

* * *

Assay: in vivo
Conditions: mouse, iv
measured-quantity: LD50 (mg/kg)
Hi! Could you send only the number? It should be in mg/kg, unit omitted.

Challenge: Would you kindly share the measured LD50 for CNC1C(O)C(OC2C(N)CC(N)C(OC3OC(CN)C(O)C(O)C3O)C2O)OCC1(C)O (stereo not shown) [Gentamicin B] ?
Response given: 228
